Entries and their T½ values follow.
TESTED SYSTEM: T1, hPRLR.mmh (soluble monomeric human PRLR) (Homo sapiens, UniProt P16471)
T1 construct: soluble monomeric (hPRLR.mmh); mmh (myc-myc-hexahistidine)
T1 sequence (P16471 with tags, fused parts or gaps): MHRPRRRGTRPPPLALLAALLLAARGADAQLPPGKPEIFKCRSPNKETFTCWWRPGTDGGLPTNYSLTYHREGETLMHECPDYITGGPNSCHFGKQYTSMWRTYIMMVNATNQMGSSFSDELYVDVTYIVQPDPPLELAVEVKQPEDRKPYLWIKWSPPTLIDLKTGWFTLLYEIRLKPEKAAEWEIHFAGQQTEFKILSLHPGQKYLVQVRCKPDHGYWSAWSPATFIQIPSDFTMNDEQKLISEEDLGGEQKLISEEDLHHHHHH
ASSAY PROCEDURE: Surface plasmon resonance (Biacore T200), mAb-capture format
Type: binding
DETAILS: 25° C., antibody-capture format, analyte hPRLR.mmh
Write the value in min as a bare number.

H1H6797P: anti-PRLR antibody, human IgG1 Fc; HCVR/LCVR SEQ ID NOs 178/186 (antibody, V domains shown, human IgG1 Fc) VH: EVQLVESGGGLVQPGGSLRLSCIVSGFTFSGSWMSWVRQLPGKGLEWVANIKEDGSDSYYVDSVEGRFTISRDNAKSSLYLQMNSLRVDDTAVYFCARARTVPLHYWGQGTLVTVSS VL: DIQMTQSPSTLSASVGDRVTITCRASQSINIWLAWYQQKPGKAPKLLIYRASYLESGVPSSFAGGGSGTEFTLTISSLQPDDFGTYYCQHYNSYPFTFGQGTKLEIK : 6

Field: next molecule
GET /values?readout=T½&item= H1H6765P: anti-PRLR antibody, human IgG1 Fc; HCVR/LCVR SEQ ID NOs 18/26 (antibody, V domains shown, human IgG1 Fc) VH: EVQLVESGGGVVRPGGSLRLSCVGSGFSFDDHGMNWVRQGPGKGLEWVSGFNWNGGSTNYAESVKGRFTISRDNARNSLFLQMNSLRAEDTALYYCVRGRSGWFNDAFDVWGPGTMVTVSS VL: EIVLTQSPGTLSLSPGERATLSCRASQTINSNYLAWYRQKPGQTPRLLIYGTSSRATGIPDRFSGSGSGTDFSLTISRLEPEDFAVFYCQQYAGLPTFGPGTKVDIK
102
